Hi there, I'd appreciate the recorded pKi for every entry that follows.
molecular target: HIV-1 protease (Human immunodeficiency virus type 1 group M subtype B); test: biochemical
pKi: −log10 of the molar value.

Solved entries:
>  <Compound>
COc1ccc(S(=O)(=O)N(C[C@@H](O)[C@H](Cc2ccccc2)NC(=O)OC(C)(C)C)OC2CCCCC2)cc1

>  <Measured property>
pKi

>  <Measured>
8.00 to 9.00

$$$$
>  <Compound>
COc1ccc(S(=O)(=O)N(C[C@@H](O)[C@H](Cc2ccccc2)NC(=O)OC2CO[C@H]3OCC[C@@H]23)OC2CCCCC2)cc1 (stereo partly drawn)

>  <Measured property>
pKi

>  <Measured>
> 9.00

$$$$

// next item, pKi requested
Which pKi is reported for this compound? O=C(N[C@@H](Cc1ccccc1)[C@H](O)CN(OC1CCCC1)S(=O)(=O)c1ccc2c(c1)OCO2)OC1CO[C@H]2OCC[C@@H]12 (stereo partly drawn)
> 9.00

----------
system: HIV-1 (strain IIIB); experiment: microbe, parasite or virus in culture; assay type: cell-based; details: Human immunodeficiency virus 1, 120 h; MT4 cells infected with HIV-1 strain IIIB, 5 days; lower line of each compound's entry; read-out: IC50 (MT-4 cells)
I'd appreciate it if you could supply IC50 values for the items below.

Use the examples below as a reference point.
>  <Compound>
CCOC(=O)CNC(=O)NCCNc1cccc(S(=O)(=O)N(CC(O)C(Cc2ccccc2)NC(=O)OC2COC3OCCC23)OC2CCCC2)c1 (mixture of isomers) [Compound 113]

>  <Tested system>
HIV-1 (strain IIIB)

>  <Measured>
≤ 100 nM

$$$$
>  <Compound>
N#CCNc1cccc(S(=O)(=O)N(CC(O)C(Cc2ccccc2)NC(=O)OC2COC3OCCC23)OC2CCCC2)c1 (stereo not drawn) [Compound 86]

>  <Tested system>
HIV-1 (strain IIIB)

>  <Measured>
≤ 100 nM

$$$$

Please give the measured IC50 for this compound: CON(C)C(=O)COc1cccc(S(=O)(=O)N(C[C@@H](O)[C@H](Cc2ccccc2)NC(=O)OC2CO[C@H]3OCC[C@@H]23)OC2CCCC2)c1 (stereo partly drawn) [Compound 137]
≤ 100 nM

----------
molecular target: UniProtKB P04585; test: biochemical; conditions: HIV-1 protease; upper line of each compound's entry; read-out: Ki (enzyme)
Please respond with reported Ki for every item in the list.

>  <Compound>
O=C(N[C@@H](Cc1ccccc1)[C@H](O)CN(OC1CCCC1)S(=O)(=O)c1cccc(OCC(=O)N2CCOCC2)c1)O[C@H]1CO[C@H]2OCC[C@H]21

>  <Ki>
1 to 10 nM

$$$$
>  <Compound>
CC(C)ON(C[C@@H](O)[C@H](Cc1ccccc1)NC(=O)OC(C)(C)C)S(=O)(=O)c1ccc2[nH]c(=O)[nH]c2c1

>  <Ki>
10 to 100 nM

$$$$
>  <Compound>
O=C(NC(Cc1ccccc1)C(O)CN(OC1CCCC1)S(=O)(=O)c1ccc2[nH]nnc2c1)OC1COC2OCCC12 (stereo not drawn)

>  <Ki>
< 1 nM

$$$$
>  <Compound>
COC(=O)Nc1nc2cc(S(=O)(=O)N(C[C@@H](O)[C@H](Cc3ccccc3)NC(=O)OC(C)(C)C)OC3CCCC3)ccc2[nH]1

>  <Ki>
< 1 nM

$$$$

Hi team, please reply with Ki for each item in this list.
1. CCC(CC)ON(C[C@@H](O)[C@H](Cc1ccccc1)NC(=O)O[C@H]1CO[C@H]2OCC[C@H]21)S(=O)(=O)c1cccc(N)c1
2. O=C(NC(Cc1ccccc1)C(O)CN(OC1CCCC1)S(=O)(=O)c1cccc(NCC(=O)N2CCOCC2)c1)OC1COC2OCCC12 (stereo not drawn)
3. Nc1cccc(S(=O)(=O)N(C[C@@H](O)[C@H](Cc2ccccc2)NC(=O)O[C@H]2CO[C@H]3OCC[C@H]32)OC2CCCC2)c1 (single isomer, unassigned)
4. CCC(C)ON(C[C@@H](O)[C@H](Cc1ccccc1)NC(=O)[C@H](CC(N)=O)NC(=O)c1ccc2ccccc2n1)S(=O)(=O)c1ccc(OC)cc1 (stereo partly drawn)
5. COC(=O)Nc1n[nH]c2ccc(S(=O)(=O)N(C[C@@H](O)[C@H](Cc3ccccc3)NC(=O)OC3COCOC3)OC3CCCC3)cc12
6. COC(=O)CC(=O)Nc1nc2cc(S(=O)(=O)N(C[C@@H](O)[C@H](Cc3ccccc3)NC(=O)OC(C)(C)C)OC3CCCC3)ccc2[nH]1

1. < 1 nM
2. < 1 nM
3. < 1 nM
4. < 1 nM
5. < 1 nM
6. 10 to 100 nM

# per-item lookup of Ki; items listed below
1. CC(C)ON(C[C@@H](O)[C@H](Cc1ccccc1)NC(=O)O[C@H]1CCOC1)S(=O)(=O)c1ccc2[nH]c(=O)[nH]c2c1
2. O=C(N[C@@H](Cc1ccccc1)[C@H](O)CN(OC1CCCCC1)S(=O)(=O)c1ccc2c(c1)OCO2)O[C@H]1CO[C@H]2OCC[C@H]21

["1 to 10 nM", "< 1 nM"]
